Tested on: Escherichia coli TOP10
Experiment: shrunken log2 fold change of peptide-encoding DNA abundance (4.5 h post-induction vs induction); higher = less antimicrobial activity (less host growth inhibition)
Conditions: time post-induction: 4.5 h; library: site-saturation at positions 5, 18, 19, 20
Would you please tag the item class 1 when its shrunken log2 fold change is 0.06 or above, and class 0 when it is below?

Residue String	Label Value
RRIRARPPRLPRPRPRPWHFPRP	class 1
RRIRPRPPRLPRPRPRPPGKPRP	class 1
RRIRLRPPRLPRPRPRPNDGPRP	class 0
RRIRPRPPRLPRPRPRPQGQPRP	class 0
RRIRYRPPRLPRPRPRPWFIPRP	class 0
RRIRQRPPRLPRPRPRPGNTPRP	class 1
RRIRCRPPRLPRPRPRPMLTPRP	class 0
RRIRQRPPRLPRPRPRPDVVPRP	class 0

----------
Tested on: Escherichia coli TOP10
Assay: shrunken log2 fold change of peptide-encoding DNA abundance (4.5 h post-induction vs induction); higher = less antimicrobial activity (less host growth inhibition)
Conditions: time post-induction: 4.5 h; library: site-saturation at positions 5, 18, 19, 20

Residue String	shrunken log2 fold change
RRIRHRPPRLPRPRPRPPPEPRP	0.836
RRIRDRPPRLPRPRPRPLDFPRP	0.0675
RRIRGRPPRLPRPRPRPCLPPRP	-0.0995
RRIRGRPPRLPRPRPRPDWMPRP	0.235
RRIRWRPPRLPRPRPRPGCTPRP	0.194
RRIRFRPPRLPRPRPRPVPIPRP	-0.0344
RRIRARPPRLPRPRPRPFLDPRP	0.116
RRIRTRPPRLPRPRPRPHFWPRP	0.0783
RRIRVRPPRLPRPRPRPHTLPRP	-0.571
RRIRGRPPRLPRPRPRPNIRPRP	-0.135
RRIRRRPPRLPRPRPRPPRWPRP	0.986
RRIRSRPPRLPRPRPRPRSPPRP	0.363
RRIRHRPPRLPRPRPRPQYDPRP	-1.12
RRIRARPPRLPRPRPRPVMRPRP	0.292
RRIRLRPPRLPRPRPRPCRVPRP	-0.141
RRIRCRPPRLPRPRPRPQFEPRP	0.000801
RRIRGRPPRLPRPRPRPIPWPRP	0.361
RRIRRRPPRLPRPRPRPIDIPRP	-0.118
RRIRWRPPRLPRPRPRPMSVPRP	0.0691
RRIRERPPRLPRPRPRPQLYPRP	-0.441
RRIRTRPPRLPRPRPRPFMMPRP	-0.203
RRIRRRPPRLPRPRPRPEQIPRP	0.0197
RRIRCRPPRLPRPRPRPLKYPRP	-0.566
RRIRLRPPRLPRPRPRPNQAPRP	-0.0446
RRIRARPPRLPRPRPRPVQYPRP	0.0979
RRIRRRPPRLPRPRPRPTACPRP	0.636
RRIRFRPPRLPRPRPRPKTEPRP	0.0656
RRIRGRPPRLPRPRPRPNDPPRP	-0.0529
RRIRPRPPRLPRPRPRPEYSPRP	-0.117
RRIRERPPRLPRPRPRPYMGPRP	-1.01
RRIRVRPPRLPRPRPRPEKSPRP	0.0304
RRIRWRPPRLPRPRPRPAAYPRP	0.346

----------
System: Escherichia coli TOP10
Assay: shrunken log2 fold change of peptide-encoding DNA abundance (4.5 h post-induction vs induction); higher = less antimicrobial activity (less host growth inhibition)
Conditions: time post-induction: 4.5 h; library: site-saturation at positions 5, 18, 19, 20
Listing of recorded shrunken log2 fold change by entry.
Endpoint: shrunken log2 fold change

Residue String	Endpoint	Reading
RRIRCRPPRLPRPRPRPRYPPRP	shrunken log2 fold change	-0.00708
RRIRWRPPRLPRPRPRPIEEPRP	shrunken log2 fold change	0.0406
RRIRQRPPRLPRPRPRPKLSPRP	shrunken log2 fold change	0.00202
RRIRRRPPRLPRPRPRPDQFPRP	shrunken log2 fold change	-0.0176
RRIRVRPPRLPRPRPRPRCDPRP	shrunken log2 fold change	-0.0186
RRIRFRPPRLPRPRPRPSPLPRP	shrunken log2 fold change	-0.0981
RRIRKRPPRLPRPRPRPKTGPRP	shrunken log2 fold change	0.821
RRIRHRPPRLPRPRPRPLVLPRP	shrunken log2 fold change	-0.0931
RRIRVRPPRLPRPRPRPCTDPRP	shrunken log2 fold change	-0.46
RRIRERPPRLPRPRPRPPERPRP	shrunken log2 fold change	0.366
RRIRLRPPRLPRPRPRPVPEPRP	shrunken log2 fold change	0.161
RRIRHRPPRLPRPRPRPPTGPRP	shrunken log2 fold change	0.03
RRIRARPPRLPRPRPRPHGNPRP	shrunken log2 fold change	-0.0231
RRIRWRPPRLPRPRPRPCKHPRP	shrunken log2 fold change	-0.245
RRIRIRPPRLPRPRPRPCSVPRP	shrunken log2 fold change	-0.466
RRIRFRPPRLPRPRPRPPPTPRP	shrunken log2 fold change	1.39
RRIRERPPRLPRPRPRPYHSPRP	shrunken log2 fold change	-0.133
RRIRNRPPRLPRPRPRPMIEPRP	shrunken log2 fold change	0.00437
RRIRARPPRLPRPRPRPSAEPRP	shrunken log2 fold change	0.976
RRIRIRPPRLPRPRPRPIFAPRP	shrunken log2 fold change	-0.0891
RRIRRRPPRLPRPRPRPDHRPRP	shrunken log2 fold change	-0.00663
RRIRYRPPRLPRPRPRPNAFPRP	shrunken log2 fold change	-0.158
RRIRPRPPRLPRPRPRPHEYPRP	shrunken log2 fold change	-0.25
RRIRYRPPRLPRPRPRPTFHPRP	shrunken log2 fold change	-0.649
RRIRLRPPRLPRPRPRPEIRPRP	shrunken log2 fold change	-0.0685
RRIRCRPPRLPRPRPRPGQVPRP	shrunken log2 fold change	0.0846
RRIRARPPRLPRPRPRPIEQPRP	shrunken log2 fold change	0.124
RRIRYRPPRLPRPRPRPHEIPRP	shrunken log2 fold change	-0.194
RRIRCRPPRLPRPRPRPWNVPRP	shrunken log2 fold change	-0.476
RRIRKRPPRLPRPRPRPLWFPRP	shrunken log2 fold change	0.107
RRIRTRPPRLPRPRPRPAIHPRP	shrunken log2 fold change	-0.384
RRIRNRPPRLPRPRPRPKYTPRP	shrunken log2 fold change	-0.63

----------
Tested on: Escherichia coli TOP10
Test: shrunken log2 fold change of peptide-encoding DNA abundance (4.5 h post-induction vs induction); higher = less antimicrobial activity (less host growth inhibition)
Details: time post-induction: 4.5 h; library: site-saturation at positions 5, 18, 19, 20
Listing of recorded shrunken log2 fold change by entry.

Residue String	shrunken log2 fold change
RRIRSRPPRLPRPRPRPVWTPRP	0.241
RRIRLRPPRLPRPRPRPLNFPRP	-0.268
RRIRNRPPRLPRPRPRPSRAPRP	0.121
RRIRIRPPRLPRPRPRPMHIPRP	-0.417
RRIRDRPPRLPRPRPRPMNTPRP	-0.125
RRIRARPPRLPRPRPRPWIYPRP	-0.647
RRIRFRPPRLPRPRPRPRYWPRP	-0.0206
RRIRLRPPRLPRPRPRPMNMPRP	-0.0334
RRIRFRPPRLPRPRPRPHDTPRP	-0.535
RRIRARPPRLPRPRPRPDPIPRP	-0.521
RRIRGRPPRLPRPRPRPPSRPRP	1.11
RRIRCRPPRLPRPRPRPCAGPRP	0.039
RRIRPRPPRLPRPRPRPLNGPRP	-0.0765
RRIRNRPPRLPRPRPRPTQHPRP	0.0469
RRIRCRPPRLPRPRPRPVQTPRP	-0.0555
RRIRDRPPRLPRPRPRPDMKPRP	-0.00136
RRIRTRPPRLPRPRPRPAMKPRP	-0.125
RRIRYRPPRLPRPRPRPPVPPRP	0.486
RRIRNRPPRLPRPRPRPCYPPRP	-0.318
RRIRKRPPRLPRPRPRPRHKPRP	0.458
RRIRNRPPRLPRPRPRPIHSPRP	-0.189
RRIRVRPPRLPRPRPRPEDTPRP	0.106
RRIRLRPPRLPRPRPRPYTEPRP	-0.284
RRIRKRPPRLPRPRPRPYCGPRP	0.0176
RRIRFRPPRLPRPRPRPTHMPRP	0.0264
RRIRCRPPRLPRPRPRPHKFPRP	-0.742
RRIRIRPPRLPRPRPRPWVIPRP	-0.0141
RRIRTRPPRLPRPRPRPTYIPRP	-0.603
RRIRIRPPRLPRPRPRPDMKPRP	-0.0106
RRIRGRPPRLPRPRPRPNNAPRP	0.0616
RRIRMRPPRLPRPRPRPDSMPRP	0.025
RRIRTRPPRLPRPRPRPDYMPRP	-0.687

----------
Test system: Escherichia coli TOP10;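 also: peptides expressed intracellularly from a pBAD plasmid library in pooled LB shake-flask culture, induced with 0.3% L-arabinose, DNA abundance read by NGS, three biological replicates, DESeq2 with apeglm shrinkage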
Assay: shrunken log2 fold change of peptide-encoding DNA abundance (4.5 h post-induction vs induction); higher = less antimicrobial activity (less host growth inhibition)
Settings: time post-induction: 4.5 h; library: site-saturation at positions 5, 18, 19, 20
Listing of recorded shrunken log2 fold change by entry.

Residue String	shrunken log2 fold change
RRIRWRPPRLPRPRPRPVDCPRP	0.00927
RRIRQRPPRLPRPRPRPRCLPRP	0.176
RRIRHRPPRLPRPRPRPLPNPRP	-0.156
RRIRPRPPRLPRPRPRPYWVPRP	-0.284
RRIRRRPPRLPRPRPRPIMWPRP	0.121
RRIRERPPRLPRPRPRPVLVPRP	-0.0151
RRIRNRPPRLPRPRPRPMWAPRP	-0.0203
RRIRYRPPRLPRPRPRPRFIPRP	-0.671
RRIRTRPPRLPRPRPRPVGMPRP	-0.388
RRIRQRPPRLPRPRPRPLLHPRP	-0.182
RRIRVRPPRLPRPRPRPRFSPRP	-0.17
RRIRLRPPRLPRPRPRPHWHPRP	-0.249
RRIRPRPPRLPRPRPRPLLSPRP	0.0345
RRIRCRPPRLPRPRPRPFPYPRP	-0.645
RRIRNRPPRLPRPRPRPFEEPRP	0.0129
